Data credit: the supplement of paper PMC10567573

B1: TRIM39 (parent)
chain: CKACITRWWEDLERDFPCPVCRKT

variants of: B1; test: protein stability index of a GFP-peptide fusion (GPS, HEK-293T) (PSI 1-6); higher = more stable; conditions: c terminus: a fixed tail appended;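 further: lentivirally expressed fusions sorted by FACS into six bins by GFP to DsRed ratio, PSI derived from sequencing read proportions per bin multiplied by bin number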
quantity.kind: protein stability index
When you answer, write just the number.

variant.code	quantity.kind	value.measured
E10G	protein stability index	3.94
W9F	protein stability index	4.07
F16V	protein stability index	4.04

Name the reported protein stability index value associated with the variant P19S
3.47

Name the reported protein stability index value associated with the variant L12G
4.11

Name the reported protein stability index value associated with the variant I5E
4.6

Name the reported protein stability index value associated with the variant K23F
2.57

Name the reported protein stability index value associated with the variant K23W
2.95

Name the reported protein stability index value associated with the variant E13Y
3.79

Name the reported protein stability index value associated with the variant K23M
3.37

Name the reported protein stability index value associated with the variant T24H
3.58

Name the reported protein stability index value associated with the variant P19H
3.35

Name the reported protein stability index value associated with the variant V20L
4.16
